B1: WW domain-containing transcription regulator protein 1, residues 116 to 162; numbered along this chain, Q9GZV5 (parent)
chain: QSYDVTDELPLPPGWEMTFTATGQRYFLNHIEKITTWQDPRKAMNQP

Variants of: B1
Experiment: abundance fitness (aPCA) (normalised: wild type 0, dead -1); higher = more abundant; growth selection in yeast, the domain comes from the species named
Conditions: Homo sapiens
Class (required): determined from abundance fitness; valid ranges are low end (below -0.3), middle (-0.3 to below -0.1), high end (-0.1 or more)

## Input Class (by measured abundance fitness) for A43K
## Output high end

## Input Class (by measured abundance fitness) for V5Q
## Output middle

## Input Class (by measured abundance fitness) for N45A
## Output high end

## Input Class (by measured abundance fitness) for Q24S
## Output middle

## Input Class (by measured abundance fitness) for T35C
## Output middle

## Input Class (by measured abundance fitness) for H30V
## Output middle
